Source of measurements: patent US20200199102A1

Parameter: % signal. Scope: all listed entries.
molecular target: Cyclophilin A (Homo sapiens, UniProt P62937); construct: made in house; test: AlphaLISA inhibition of binding of biotinylated Cyclosporin A to FLAG tagged Cyclophilin A; settings: AlphaLISA signal; test concentration not given
Sequence (P62937 whole entry, species assumed): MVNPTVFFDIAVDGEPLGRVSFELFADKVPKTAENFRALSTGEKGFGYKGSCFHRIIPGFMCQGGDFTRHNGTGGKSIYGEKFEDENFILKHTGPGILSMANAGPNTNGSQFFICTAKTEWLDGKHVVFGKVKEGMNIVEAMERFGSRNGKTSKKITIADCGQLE
Where a SMILES comes first, the peptide text is derived from it. [ ]: non-standard residue; d: D form. MeBmt = C/C=C/C[C@@H](C)[C@@H](O)[C@H](NC)C(=O)O; NMeL = CN[C@@H](CC(C)C)C(=O)O; dNMeV = CN[C@@H](C(=O)O)C(C)C; Tle = CC(C)(C)[C@H](N)C(=O)O; NMeV = CN[C@H](C(=O)O)C(C)C; NMeA = CN[C@@H](C)C(=O)O; Abu = CC[C@H](N)C(=O)O; Sar = CNCC(=O)O
Write the value in % as a bare number.

Example entries and their recorded answers appear below.
C/C=C/C[C@@H](C)[C@@H](O)[C@H]1C(=O)N[C@@H](CC)C(=O)N(C)CC(=O)N(C)[C@@H](C)C(=O)N[C@@H](C(C)C)C(=O)N(C)[C@@H](C)C(=O)N[C@@H](C)C(=O)N[C@H](C)C(=O)N(C)[C@@H](CC(C)C)C(=O)N(C)[C@@H](CC(C)C)C(=O)N(C)[C@@H](C(C)C)C(=O)N1C [Compound C2] (cyclo([MeBmt][Abu][Sar][NMeA]V[NMeA]A[dA][NMeL][NMeL][NMeV])); 5.25
C/C=C/C[C@@H](C)[C@@H](O)[C@H]1C(=O)N[C@@H](CC)C(=O)N(C)CC(=O)N(C)[C@@H](CC(C)C)C(=O)N[C@@H](C(C)(C)C)C(=O)N(C)[C@@H](C)C(=O)N[C@@H](CC(C)C)C(=O)N[C@H](C)C(=O)N(C)[C@@H](CC(C)C)C(=O)N(C)[C@@H](CC(C)C)C(=O)N(C)[C@@H](C(C)C)C(=O)N1C [Compound C74] (cyclo([MeBmt][Abu][Sar][NMeL][Tle][NMeA]L[dA][NMeL][NMeL][NMeV])); 4.92

GET % signal where system = Cyclophilin A (Homo sapiens, UniProt P62937) and item = C/C=C/C[C@@H](C)[C@@H](O)[C@H]1C(=O)N[C@@H](CC)C(=O)N(C)CC(=O)N(C)[C@@H](C(C)C)C(=O)N[C@@H](C(C)C)C(=O)N(C)[C@@H](CC(C)C)C(=O)N[C@@H](CC(C)C)C(=O)N[C@H](C)C(=O)N(C)[C@@H](CC(C)C)C(=O)N(C)[C@@H](CC(C)C)C(=O)N(C)[C@@H](C(C)C)C(=O)N1C [Compound C53] (cyclo([MeBmt][Abu][Sar][NMeV]V[NMeL]L[dA][NMeL][NMeL][NMeV]))
−0.01

GET % signal where system = Cyclophilin A (Homo sapiens, UniProt P62937) and item = C/C=C/C[C@@H](C)[C@@H](O)[C@H]1C(=O)N[C@@H](CC)C(=O)N(C)CC(=O)N(C)[C@H](C(C)C)C(=O)N[C@@H](C(C)C)C(=O)N(C)[C@@H](C)C(=O)N[C@@H](CC(C)C)C(=O)N[C@H](C)C(=O)N(C)[C@@H](CC(C)C)C(=O)N(C)[C@@H](CC(C)C)C(=O)N(C)[C@@H](C(C)C)C(=O)N1C [Compound C91] (cyclo([Abu][Sar][dNMeV]V[NMeA]L[dA][NMeL][NMeL][NMeV][MeBmt]))
5.17

GET % signal where system = Cyclophilin A (Homo sapiens, UniProt P62937) and item = C/C=C/C[C@@H](C)[C@@H](O)[C@H]1C(=O)N[C@@H](CC)C(=O)N(C)CC(=O)N(C)[C@@H](CC(C)C)C(=O)N[C@@H](CC(C)C)C(=O)N(C)[C@@H](C)C(=O)N[C@@H](C)C(=O)N[C@H](C)C(=O)N(C)[C@@H](CC(C)C)C(=O)N(C)[C@@H](CC(C)C)C(=O)N(C)[C@@H](C(C)C)C(=O)N1C [Compound C14] (cyclo([MeBmt][Abu][Sar][NMeL]L[NMeA]A[dA][NMeL][NMeL][NMeV]))
9.36
